Reported normalized growth values for the following molecules.
Measurement Notes: chemical genetic growth profiling, strain panel (AID 1159580);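 note: tested at 20 µM; growth read once vehicle control cultures reached saturation at 30 °C; 1 = growth at the plate median or of vehicle wells; lower values mean less growth of the strain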
Experimental Setup: S. cerevisiae deletion strains, growth OD, locus YAL021C, strain ccr4, hits give low values
Hit rate of the full screen: of about 5,500 compounds, about 2,000 (36%) were called active. Inconclusive results (about 18%) are left out. Some of the results follow.
Simply state the number, no unit and no words.

Examples with their reported normalized growth follow.
- Molecule: "CC(=O)O[C@H]1[C@@H]2[C@@H](OC(=O)Cc3ccccc3)[C@@H](C)C[C@]2(OC(C)=O)C(=O)/C(C)=C/[C@H]2[C@H](CC[C@@]13CO3)C2(C)C"
  Recorded Endpoint: "normalized growth"
  Numeric Result: 0.975
- Molecule: "CNC(C)[C@H](O)c1ccccc1 (stereo partly drawn)"
  Recorded Endpoint: "normalized growth"
  Numeric Result: 1.03
- Molecule: "CC(C(=O)O)c1cccc(C(=O)c2ccccc2)c1 (stereo not drawn)"
  Recorded Endpoint: "normalized growth"
  Numeric Result: 0.995
- Molecule: "O=C(O)c1c2ccccc2cc2ccccc12"
  Recorded Endpoint: "normalized growth"
  Numeric Result: 0.973
- Molecule: "CN1CCCN=C1COC(=O)C(O)(c1ccccc1)C1CCCCC1 (stereo not drawn)"
  Recorded Endpoint: "normalized growth"
  Numeric Result: 1

Asked: Which measured normalized growth value corresponds to "CCOC(=O)c1c(C)cc(O)c(C=O)c1O" ?
Given back: 0.615

Asked: Same question, CC(C(=O)O)c1ccc(-c2ccccc2)c(F)c1 (stereo not drawn) this time
Given back: 0.978

Asked: Same question, NCC1CCC(C(=O)O)CC1 (stereo not drawn) this time
Given back: 1

Asked: Same question, Cc1cccc(C)c1OCC(C)N (stereo not drawn) this time
Given back: 0.986

Asked: Same question, "CCOC(=O)[C@H](CCc1ccccc1)N[C@H]1CCc2ccccc2N(CC(=O)O)C1=O" this time
Given back: 0.961

Asked: Same question, "CCCCCCCCCCCCCCCC[N+](C)(C)C" this time
Given back: 0.0584

Asked: Same question, CC(Oc1ccccc1)C(=O)N[C@@H]1C(=O)N2[C@@H]1SC(C)(C)[C@@H]2C(=O)O (stereo partly drawn) this time
Given back: 1

Asked: Same question, "CC(C)OC(=O)C(C)(C)Oc1ccc(C(=O)c2ccc(Cl)cc2)cc1" this time
Given back: 1

Asked: Same question, "CCC(=O)O[C@H]1[C@H](O[C@@H]2[C@@H](C)[C@H](O[C@H]3C[C@@](C)(OC)[C@@H](O)[C@H](C)O3)[C@@H](C)C(=O)O[C@H](CC)[C@@](C)(O)[C@H](O)[C@@H](C)C(=O)[C@H](C)C[C@@]2(C)O)O[C@H](C)C[C@@H]1N(C)C" this time
Given back: 0.958

Asked: Same question, CN1CCc2cc3c(cc2[C@H]1C1OC(=O)c2c1ccc1c2OCO1)OCO3 (stereo partly drawn) this time
Given back: 1.01
